I'd appreciate it if you could supply AC50 values for the items below.
measured-target: Sodium-dependent dopamine transporter (Homo sapiens); also: assay procedure not described here
Sequence (Q01959 whole entry): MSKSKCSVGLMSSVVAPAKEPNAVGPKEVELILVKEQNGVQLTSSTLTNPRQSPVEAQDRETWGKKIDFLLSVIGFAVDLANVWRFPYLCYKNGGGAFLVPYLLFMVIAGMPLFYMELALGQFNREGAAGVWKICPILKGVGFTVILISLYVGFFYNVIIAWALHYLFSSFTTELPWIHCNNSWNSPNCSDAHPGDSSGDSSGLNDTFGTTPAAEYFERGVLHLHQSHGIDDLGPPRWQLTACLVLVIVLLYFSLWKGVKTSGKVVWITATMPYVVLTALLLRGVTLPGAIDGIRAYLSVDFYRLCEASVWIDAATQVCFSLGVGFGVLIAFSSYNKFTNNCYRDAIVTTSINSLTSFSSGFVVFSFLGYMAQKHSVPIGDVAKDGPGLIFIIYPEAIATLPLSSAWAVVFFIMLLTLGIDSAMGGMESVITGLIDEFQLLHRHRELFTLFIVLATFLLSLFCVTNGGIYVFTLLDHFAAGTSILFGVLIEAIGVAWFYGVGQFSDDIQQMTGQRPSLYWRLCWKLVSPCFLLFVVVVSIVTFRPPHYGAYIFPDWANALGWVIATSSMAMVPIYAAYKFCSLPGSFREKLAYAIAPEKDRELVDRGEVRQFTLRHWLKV

compound	AC50
Cn1cnc2c(F)c(Nc3ccc(Br)cc3Cl)c(C(=O)NOCCO)cc21 [SELUMETINIB]	> 30 µM

Dear colleague, could you send me AC50 for each of the items below? Thanks.
1. C[C@]12C=CC(=O)N[C@@H]1CC[C@@H]1[C@@H]2CC[C@]2(C)[C@@H](C(=O)Nc3cc(C(F)(F)F)ccc3C(F)(F)F)CC[C@@H]12 [DUTASTERIDE]
2. COc1ccc(-c2noc(CC(=O)O)c2-c2ccc(OC)cc2)cc1 [MOFEZOLAC]

Data returned:
> 10 µM
> 30 µM

// batch mode: one AC50 value per listed entry
1. C=C[C@H]1C[N@@]2CC[C@H]1C[C@@H]2[C@@H](O)c1ccnc2ccc(OC)cc12 [QUINIDINE]
2. CCOC(=O)O[C@]1(C(=O)OCCl)CC[C@H]2[C@@H]3CCC4=CC(=O)C=C[C@]4(C)[C@H]3[C@@H](O)C[C@@]21C [LOTEPREDNOL ETABONATE]
3. CCC(COC(=O)c1cc(OC)c(OC)c(OC)c1)(c1ccccc1)N(C)C (configuration not stated) [TRIMEBUTINE]

Data returned:
1: 9.56 µM; 2: > 30 µM; 3: 27 µM

Hi there! I need AC50 for each item below, if you can.
1. CC1=C(C)C(=O)C(C(CCCCCC(=O)O)c2ccccc2)=C(C)C1=O (configuration not stated) [SERATRODAST]
2. Nc1ncn([C@H]2C[C@H](O)[C@@H](CO)O2)c(=O)n1 [DECITABINE]
3. CC(C)NCC(O)c1ccc(O)c(O)c1 (configuration not stated) [ISOPROTERENOL]
4. CC(C)Cc1ccc(C(C)C(=O)O)cc1 (configuration not stated) [IBUPROFEN]
5. CC(C)(C)C(=O)OCC(=O)[C@H]1CC[C@H]2[C@@H]3CCC4=CC(=O)CC[C@]4(C)[C@H]3CC[C@]12C [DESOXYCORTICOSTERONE PIVALATE]
6. CN(C)CCCNc1c2ccccc2nc2cccc([N+](=O)[O-])c12 [NITRACRINE]

Data returned:
1: > 30 µM; 2: > 30 µM; 3: > 30 µM; 4: > 30 µM; 5: > 10 µM; 6: > 30 µM

Each of the following entries comes with a recorded value; kindly state AC50 for each.
1. CC(C)c1nc(N(C)S(C)(=O)=O)nc(-c2ccc(F)cc2)c1/C=C/[C@@H](O)C[C@@H](O)CC(=O)O [ROSUVASTATIN]
2. CNC1=Nc2ccc(Cl)cc2C(c2ccccc2)=[N+]([O-])C1 [CHLORDIAZEPOXIDE]
3. COc1ccc(CC2c3cc(OC)c(OC)cc3CC[N+]2(C)CCC(=O)OCCCCCOC(=O)CC[N+]2(C)CCc3cc(OC)c(OC)cc3C2Cc2ccc(OC)c(OC)c2)cc1OC (configuration not stated)
4. O=C(O)c1ccccc1Nc1cc(Cl)ccc1C(=O)O [LOBENZARIT]

Data returned:
> 30 µM
> 30 µM
> 30 µM
> 30 µM
